System: MS2 coat protein
Experiment: apparent Kd, MS2 coat protein; higher = weaker binding; RNA-MaP array; theophylline 2 mM where present
Settings: designed as: OFF switch for theophylline; no ligand
readout: apparent Kd (nM)
Write down the numeric answer in nM and omit the unit.

stdin: Which value of apparent Kd has been reported for AGACAUGAGGAUCACCCAUGUAGCAUGGAUACCAGAUGUAGAUUAGUCCCUUGGCAGCUGUGGUGAAGUGAUGCAUUGCUCCUAG in the records?
stdout: 63.2

stdin: Which value of apparent Kd has been reported for UUUGCACAUGAGGAUCACCCAUGUACAGAUACCAGCCUCAUCUACGGCCCUUGGCAGCUGAGACAAUGGUGACGUGACGGGCUUU in the records?
stdout: 11.7

stdin: Which value of apparent Kd has been reported for UACAUGAGGAUCACCCAUGUGGCGGAUGAUACCAGUAUGGUGACAUACCCUUGGCAGCAUGCUAUGAGGAUCACCCAUGUGUGCA in the records?
stdout: 85.3

stdin: Which value of apparent Kd has been reported for AGCCCUGUACUAGAUACCAGCUACAUGAGGAUCACCCAUGUGCGUCAAGACUGACUGUGUGGCCCUUGGCAGCUGCUCGCAUGUA in the records?
stdout: 146

stdin: Which value of apparent Kd has been reported for UUUGCACAUGAGGAUCACCCAUGUACAGAUACCAGCCUCAUCUACGGCCCUUGGCAGCUGAGACAAUGGUGACAUGAUGGGCUUU in the records?
stdout: 12.1

stdin: Which value of apparent Kd has been reported for AUACACCUCGUCCAGGCAAUCUUUAGUGAUACCAGCUAACUCCGUGGCCCUUGGCAGCACAUGAGGAUCACCCAUGUGCGACAUC in the records?
stdout: 11.1

stdin: Which value of apparent Kd has been reported for AAGCAGGGUGUAAAAUAAAUAAUCACUGAUACCAGACUAUGAGAUGUCCCUUGGCAGCAGAAACAUGAGGAUCACCCAUGUAAUA in the records?
stdout: 22.7

stdin: Which value of apparent Kd has been reported for AGACAUGAGGAUCACCCAUGUAGUACGGAUACCAGAUCCAGAUGUAUCCCUUGGCAGCUGUGGUACAGCGUUGCAACGCUCCUAG in the records?
stdout: 16

stdin: Which value of apparent Kd has been reported for UUUUAAAGCAUGGCGUAUCGGAAAACCGAUACCAGUACAGAAAUGUACCCUUGGCAGCGGAAUUUUACAUGAGGAUCACCCAUGU in the records?
stdout: 13.1

stdin: Which value of apparent Kd has been reported for ACAUGAGGAUCACCCAUGUAACGUCUUGAUACCAGACGAGAAGUAGUCCCUUGGCAGCAAAUACGUGAGGGUCACACAUGUGUAA in the records?
stdout: 23.4

stdin: Which value of apparent Kd has been reported for AAAGAUACCAGAGAUACCAGCCAAAAUUAAAAUAAAACCUCACAUGAGGAUCACCCAUGUGGCCCUUGGCAGCUCCCUUGGCAGC in the records?
stdout: 12.5

stdin: Which value of apparent Kd has been reported for AGACAUGAGGAUCACCCAUGUAGUACGGAUACCAGAUCCAGAUGCGUCCCUUGGCAGCUGUAGUACAGCGUUACAUCGCUCGUAG in the records?
stdout: 20.8

stdin: Which value of apparent Kd has been reported for GCACCAGGUACGGAUACCAGCUAUAGGUACAUGUCAGGACAUGAGGAUCACCCAUGUGGUAGCCCUUGGCAGCUGUACCUGGUGC in the records?
stdout: 17.4

stdin: Which value of apparent Kd has been reported for CAAACAUGAGGAUCACCCAUGUAAUCAGAUACCAGUGACGAAAGUCACCCUUGGCAGCUGAGUACAUUAGUUCUAAGGUGUUUGA in the records?
stdout: 44.6

The origin of these recorded values is the EternaBench riboswitch data.
